- study system: ScCyk3
- protocol: SPOT peptide array binding signal intensity (averaged, normalized) (arbitrary units (background-subtracted, floor 0; scale differs between SH3 domains)); higher = stronger binding of the SH3 domain to the peptide
Rule: SPOT peptide array binding signal intensity under 50 gives not met, otherwise met.

binder: TPTSGPPLLPPRNTM
category: not met
--
binder: RRSKSLPITPKSIFN
category: met
--
binder: AVPPPPPPPPLPESL
category: not met
--
binder: YLTRPLPSTPNEDSR
category: not met
--
binder: DFTLPPPPPPPGLDE
category: not met
--
binder: TSIEIPKRSPLRFTS
category: not met
--
binder: HKVLRPFLLRRLKKD
category: not met
--
binder: RVTRKRPREPKSTND
category: met
--
binder: QLLNPNRRAPRRPLS
category: met
--
binder: PSTMDFPKLPSFQNS
category: not met
--
binder: GLRRARYKFPGQQKI
category: met
--
binder: SSTPTTPERPKRKSG
category: not met
--
binder: NHSRSLFSLPGNQQS
category: not met
--
binder: AIPPPVPNRPGGTTN
category: not met
--
binder: NFFRKKLGIPRKLKR
category: met
